// koff lookup, one value per entry
- testTarget: T1, soluble human GPNMB (recombinant extracellular domain) (human, UniProt Q14956 23-498)
- T1 construct: also called huGPNMB; recombinant human GPNMB extracellular domain; not shown: C-terminal polyhistidine or Avi-His tag
- T1 sequence: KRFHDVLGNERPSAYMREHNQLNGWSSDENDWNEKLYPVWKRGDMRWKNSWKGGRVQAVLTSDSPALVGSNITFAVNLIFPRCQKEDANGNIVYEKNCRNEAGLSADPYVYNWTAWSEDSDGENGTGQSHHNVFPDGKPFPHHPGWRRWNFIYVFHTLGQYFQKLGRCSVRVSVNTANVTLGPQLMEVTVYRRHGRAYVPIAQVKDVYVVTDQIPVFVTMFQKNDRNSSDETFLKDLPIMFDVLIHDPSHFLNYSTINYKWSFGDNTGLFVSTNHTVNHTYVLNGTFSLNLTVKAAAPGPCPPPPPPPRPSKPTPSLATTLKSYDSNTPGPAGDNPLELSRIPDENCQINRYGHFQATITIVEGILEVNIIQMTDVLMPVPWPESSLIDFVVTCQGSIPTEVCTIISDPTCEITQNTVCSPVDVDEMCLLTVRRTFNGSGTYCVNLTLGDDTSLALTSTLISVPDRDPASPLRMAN
- testName: SPR Carterra, Ab immobilized
# output: bare number, implied unit s⁻¹

1) anti-GPNMB antibody GPN-41 (antibody, human IgG1, V domains shown, chimeric) VH: QLQLQQSGTEVVKPGASVKIPCKASGYAFSSYWMNWVKQRPGKGLEWIGQIYPGDGDTNDNGKFEGKATLTVDKSSNTAYIQLSSLTSEDSAVYFCARSPLHLRGSMDYWGQGTSVTVSS VL: SIVMTQTPKFLLVSAGDRVTITCKASQSVSNDVAWFQQKPGQSPELLIYSASNRYTGVPDRFTASGYGTDFTFTISAVQAEDLAVYFCQQNYYSPFTFGGGTRLEIK	8.2e-05

From here, focus on the item given below.
Input: Entry anti-GPNMB antibody GPN-24 (antibody, human IgG1, V domains shown, chimeric) VH: QVQLQQPGAELVKPGASVKMSCKASGYTFTSYWITWVKQRPGQGLEWIGDIHPGSGRSNYNEKFKNKATLNVDTSSSTVYMQLSSLTSEDSAVYYCARDYLFAYWGQGTLVTVSA VL: DIQMTQSPSSLSASLGERVSLTCRASQEISGYLSWLQQKPDGTIKRLIYSTSTLDSGVPKRFSGSRSGSDYSLTISSLESEDFADYYCLQYTSSPPTFGGGTKLEIK : reported koff = ?
Output: 0.00057
